assay: nuclear p53 accumulation, HPV+ cells – imaging, p53-positive nuclei imaging, 24 h, 48 h (AID 1508601); settings: 24/48 h, measured here: cell number at 24 h, Library stock concentration: 1.111 mM
The campaign covered roughly 5,700 compounds. About 85 (1%) were called active. Many of the other results were omitted from the sample, so actives are more common in it than they were.
Attribute Measured: nuclei count, normalised (%)
Give your result in % as a bare value.

Consider the following illustrative entries.
Molecule | Scale Unit | nuclei count, normalised
CN(C)CCC(CSc1ccccc1)Nc1ccc(S(=O)(=O)NC(=O)c2ccc(N3CCN(Cc4ccccc4-c4ccc(Cl)cc4)CC3)cc2)cc1[N+](=O)[O-] (configuration not stated) | % | 113
CN(NC(=O)CC(=O)NN(C)C(=S)c1ccccc1)C(=S)c1ccccc1 | % | 60.4
CCCCCCCCCCCCCC=CC(O)C(CO)N(C)C (configuration not stated) | % | 118
CCOC(=O)c1sc(NC(=O)c2ccco2)c(SC#N)c1C | % | 114
O=C(O)c1ccccc1SC1=NS(=O)(=O)c2ccccc21 | % | 119
OCC1OC(n2cnc3c2NC=NCC3O)CC1O (configuration not stated) | % | 120

For the next question, use this molecule.
## Input Please supply the value of reported nuclei count, normalised for the item N#CSc1cc(SC#N)c(N)nc1N
## Output 107

* * *

target: Cellular tumor antigen p53 (Homo sapiens) (UniProt P04637); experiment: nuclear p53 accumulation, HPV+ cells – imaging, p53-positive nuclei imaging, 24 h, 48 h (AID 1508601); conditions: 24/48 h, measured here: p53 positive nuclei at 24 h, Library stock concentration: 3.33 mM, stronger effect = higher value
Sequence (P04637 whole entry, looked up): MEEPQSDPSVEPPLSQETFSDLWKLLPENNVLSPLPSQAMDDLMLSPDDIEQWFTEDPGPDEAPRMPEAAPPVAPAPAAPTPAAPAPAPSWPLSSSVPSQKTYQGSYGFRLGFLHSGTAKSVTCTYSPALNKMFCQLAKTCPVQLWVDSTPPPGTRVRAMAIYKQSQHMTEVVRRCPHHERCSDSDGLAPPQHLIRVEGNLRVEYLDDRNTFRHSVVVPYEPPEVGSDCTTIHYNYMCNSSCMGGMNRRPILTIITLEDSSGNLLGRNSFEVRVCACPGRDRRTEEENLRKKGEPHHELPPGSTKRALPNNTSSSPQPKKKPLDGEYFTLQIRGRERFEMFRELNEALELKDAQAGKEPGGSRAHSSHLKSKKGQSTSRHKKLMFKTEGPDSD
In all, about 5,700 compounds went through this assay and about 85 (1%) were called active. Shown is part of a subset that was picked to be rich in actives.
Attribute Measured: p53-positive nuclei, normalised (%)
Unit % implied. Number only.

Examples from the recorded data:
Molecule | p53-positive nuclei, normalised [%]
COc1cc(=C2C=c3ccccc3=N2)[nH]c1=Cc1[nH]c(C)cc1C | 159
CC(C)(CO)c1cc2cc(NC(=O)C3(c4ccc5c(c4)OC(F)(F)O5)CC3)c(F)cc2n1CC(O)CO (centres undefined) | -0.244
CS(=O)(=O)N1CCN(Cc2cc3nc(-c4cccc5[nH]ncc45)nc(N4CCOCC4)c3s2)CC1 | -0.329
CCCC1CC(C(=O)NC(C(C)O)[C@@H]2OC(SC)C(O)C(O)C2O)N(C)C1 (some centres undefined) | -0.267
C#C[C@@]1(O)CC[C@H]2[C@@H]3CCc4cc(O)ccc4[C@@H]3CC[C@@]21C | 2.17
Cc1c(CN2CCN(C(=O)C(C)O)CC2)sc2c(N3CCOCC3)nc(-c3cnc(N)nc3)nc12 (centres undefined) | -0.356

## Input Return the recorded p53-positive nuclei, normalised value; entry: CCC(CC)(NC(=O)C(C)C)C(=O)NC(CCCN=C(N)N)C(=O)NC1(C(=O)NC(c2ccc(F)cc2)c2ccc(F)cc2)CCCC1 (centres undefined)
## Output -0.115

## Input Tell me its p53-positive nuclei, normalised given COc1ccc(-c2nc(N3CCOCC3)c3sc(CN(C)c4ncc(C(=O)NO)cn4)cc3n2)cn1 as the entry.
## Output 43.2

## Input Identify measured p53-positive nuclei, normalised corresponding to CNC(=O)c1nn(C)c2c1C(C)(C)Cc1cnc(Nc3ccc(N4CCN(C)CC4)cc3)nc1-2
## Output 0.144

* * *

target: Cellular tumor antigen p53 (Homo sapiens); experiment: nuclear p53 accumulation, HPV+ cells – imaging, p53-positive nuclei imaging, 24 h, 48 h (AID 1508601); conditions: 24/48 h, Library stock concentration: 1.5 uM, stronger effect = higher value
Out of some 5,700 compounds screened, about 85 (1%) were called active. What follows is part of a selection rich in actives, with near analogues and random picks from the rest.
Entries and their p53-positive nuclei, normalised values follow.
Please reply with the bare figure in % and do not write the unit itself.

Compound | Target Under Test | p53-positive nuclei, normalised (%)
COC(=O)C#Cc1ccc([N+](=O)[O-])cc1 | Cellular tumor antigen p53 (Homo sapiens) | 0.113
CN(NC(=O)CC(=O)NN(C)C(=S)c1ccccc1)C(=S)c1ccccc1 | Cellular tumor antigen p53 (Homo sapiens) | -0.251
NC(=O)c1ncn(C2OC(CO)C(O)C2O)c1O (centres undefined) | Cellular tumor antigen p53 (Homo sapiens) | -0.0465
CCCCCCCCCCCCCC=CC(O)C(CO)N(C)C (centres undefined) | Cellular tumor antigen p53 (Homo sapiens) | -0.126

## Input Answer with reported p53-positive nuclei, normalised of C=C1C(=O)OC(CCCCCCCC)C1C(=O)O (centres undefined)
## Output -0.0382

## Input Given Nc1ccn(C2C=C(CO)C(O)C2O)c(=O)n1 (centres undefined) , respond with its p53-positive nuclei, normalised.
## Output -0.145

## Input Give the value of p53-positive nuclei, normalised reported for the following: OC(c1cc(C(F)(F)F)nc2c(C(F)(F)F)cccc12)[C@H]1CCCCN1 (some centres undefined)
## Output -0.125

## Input Quickly give me recorded p53-positive nuclei, normalised for Nc1ccn(C2OC(CO)C(O)C2F)c(=O)n1 (centres undefined)
## Output -0.0067

## Input Let me know recorded p53-positive nuclei, normalised for COc1ccc(N2C(=O)C(=Cc3ccc([N+](=O)[O-])s3)SC2=S)cc1 , thanks.
## Output 0.0846

* * *

Reported p53-positive nuclei, normalised is given for each of the following compounds.
target: Cellular tumor antigen p53 (Homo sapiens); experiment: nuclear p53 accumulation, HPV+ cells – imaging, p53-positive nuclei imaging, 24 h, 48 h (AID 1508601); details: 24/48 h, measured here: p53 positive nuclei at 24 h, Library stock concentration: 1.67 mM, stronger effect = higher value
Out of some 5,700 compounds screened, about 85 (1%) were called active. The entries come from a sample that favours actives as a whole.
Give the value, in units of %, as a plain number.

Solved cases below.
Smiles Data | Scale Unit | p53-positive nuclei, normalised
COc1cc(OC)c2c(=O)[nH]c(-c3cc(C)c(OCCO)c(C)c3)nc2c1 | % | -0.00477
O=C1NCCSc2c1sc1ccc(O)cc21 | % | 0.2
CC(C)(C)Nc1nc2cc(Cl)c(Cl)cc2nc1S(C)(=O)=O | % | 0.616
O=C(O)CCCCCCCCCCCNC(=O)NC12CC3CC(CC(C3)C1)C2 | % | 0.0415
Nc1ccccc1NC(=O)c1ccc(CNC(=O)OCc2cccnc2)cc1 | % | 5.23

Now examine the next entry.
## Input Report p53-positive nuclei, normalised, nothing else, for this compound: CN1CCc2c(c3ccccc3n2Cc2ccc(C(=O)NO)cc2)C1
## Output -0.0538

* * *

assay: nuclear p53 accumulation, HPV+ cells – imaging, p53-positive nuclei imaging, 24 h, 48 h (AID 1508601); settings: 24/48 h, measured here: cell number at 48 h, Library stock concentration: 80 uM
In all, about 5,700 compounds went through this assay and about 85 (1%) were called active. The list comes from a sample in which actives are over-represented; it also holds close analogues and randomly drawn compounds.
nuclei count, normalised for assorted compounds
The response must be a number in % with no trailing unit.

Example compounds with recorded nuclei count, normalised:
Compound | Attribute Measured | Scale Unit | Endpoint Result
CCCCc1nc2cc(C=CC(=O)NO)ccc2n1CCN(CC)CC | nuclei count, normalised | % | 90.2
COc1cc(C(=O)NS(=O)(=O)c2ccccc2C)ccc1Cc1cn(C)c2ccc(NC(=O)OC3CCCC3)cc12 | nuclei count, normalised | % | 113
Cn1cc(CNCC2CCN(c3ncc(C(=O)NO)cn3)CC2)c2ccccc21 | nuclei count, normalised | % | 55.2
OC1CCC(Nc2ncc3nc(Nc4c(F)cc(F)cc4F)n(C4CCOC4)c3n2)CC1 (stereo not given) | nuclei count, normalised | % | 111

Then there is this compound:
## Input Please give measured nuclei count, normalised of the following entry: NC(=O)c1ccc(-c2nc(-c3ccc4c(c3)OCCO4)c(-c3ccccn3)[nH]2)cc1
## Output 111

* * *

Catalogue of compounds with associated nuclei count, normalised
assay: nuclear p53 accumulation, HPV+ cells – imaging, p53-positive nuclei imaging, 24 h, 48 h (AID 1508601); settings: 24/48 h, measured here: cell number at 48 h, Library stock concentration: 2 mM
The whole screen tested about 5,700 compounds, of which about 85 (1%) were called active. Shown is part of a subset that was picked to be rich in actives.
Output spec: scalar in %, unitless text.

Known results for compounds:
Compound | nuclei count, normalised, %
O=C(NOCC(O)CO)c1ccc(F)c(F)c1Nc1ccc(I)cc1F (stereo unspecified) | 95.8
Cn1cc(CNCC2CCN(c3ncc(C(=O)NO)cn3)CC2)c2ccccc21 | 20.2
CC(C)CC(=O)Nc1n[nH]c2c1CN(C(=O)C1CCN(C)CC1)C2(C)C | 44.9

## Input Tell me its nuclei count, normalised given COC(=O)C=CC(=O)N(O)CCCCNCc1ccc(COC(=O)Nc2cccc3ccccc23)cc1 as the entry.
## Output 110

## Input Output nuclei count, normalised of COc1ccc(-c2ccc3ncc4c(c3c2)n(-c2ccc(N3CCNCC3)c(C(F)(F)F)c2)c(=O)n4C)cn1
## Output 21

## Input Tell me measured nuclei count, normalised for O=C1NCCCc2c1oc1ccc(O)cc21 please.
## Output 99.6

## Input Supply reported nuclei count, normalised belonging to this compound: CCCCN(Cc1ccc(C(=O)NO)cc1)C(=O)Nc1ccccc1
## Output 99.5

## Input Complete the entry with nuclei count, normalised for CN1CC[C@H](c2c(O)cc(O)c3c(=O)cc(-c4ccccc4Cl)oc23)C(O)C1 (stereo partly specified)
## Output 21.8

## Input Kindly indicate its recorded nuclei count, normalised. Item: COc1cc(C(=O)NS(=O)(=O)c2ccccc2C)ccc1Cc1cn(C)c2ccc(NC(=O)OC3CCCC3)cc12
## Output 111

## Input Let me know recorded nuclei count, normalised for CC(C)(CO)c1cc2cc(NC(=O)C3(c4ccc5c(c4)OC(F)(F)O5)CC3)c(F)cc2n1CC(O)CO (stereo unspecified) , thanks.
## Output 110

## Input Look up nuclei count, normalised of COc1ccc(Cn2ccc3ccc(C(=O)NO)cc32)cc1 and report it.
## Output 98.8

## Input Quickly give me recorded nuclei count, normalised for COc1ccc(-c2nc(N3CCOCC3)c3sc(CN(C)c4ncc(C(=O)NO)cn4)cc3n2)cn1
## Output 24.2

## Input Kindly indicate its recorded nuclei count, normalised. Item: Cn1cc(C2=C(c3cn(CCCSC(=N)N)c4ccccc34)C(=O)NC2=O)c2ccccc21
## Output 98.9

## Input Provide only the value of recorded nuclei count, normalised for COc1cc(OC)cc(-c2ccc3ncc4ccc(=O)n(-c5ccc(N6CCNCC6)c(C(F)(F)F)c5)c4c3c2)c1
## Output 103

## Input Indicate the recorded nuclei count, normalised value for this compound: O=Nc1c(O)[nH]c2c(Cl)c(Cl)ccc12
## Output 54.9

## Input Name the recorded nuclei count, normalised of the compound listed here: COC(=O)c1c(NC(=O)CC2SC(=N)NC2=O)sc(C)c1C (stereo unspecified)
## Output 106

## Input Please indicate nuclei count, normalised recorded for O=Nc1c(-c2c(O)[nH]c3cc(Br)ccc23)[nH]c2ccccc12
## Output 91.1

## Input Report nuclei count, normalised for Nc1ccccc1NC(=O)c1ccc(CNC(=O)OCc2cccnc2)cc1
## Output 101

## Input Name the recorded nuclei count, normalised of the compound listed here: CCC(=O)N1CCN(c2ccc(-n3c(=O)ccc4cnc5ccc(-c6cnc7ccccc7c6)cc5c43)cc2C(F)(F)F)CC1
## Output 36.2

## Input Please indicate nuclei count, normalised recorded for COc1ccc2nc3ccc(OC)cc3c(SCCCN)c2c1
## Output 109

## Input Could you please provide reported nuclei count, normalised for CN1CCC(c2c(O)cc(O)c3c(=O)cc(-c4ccccc4Cl)oc23)C1CO (stereo unspecified) ? Thanks!
## Output 23.2
